Assay: In-vivo pharmacokinetic analysis (beagle), single oral administration
Conditions: dog, plasma, beagles, Docetaxel PO 50 mg/kg

# Compound, Tmax
rows = [
    ("CC(=O)O[C@@]12CO[C@@H]1C[C@H](O)[C@@]1(C)C(=O)[C@H](O)C3=C(C)[C@@H](OC(=O)[C@H](O)[C@@H](NC(=O)OC(C)(C)C)c4ccccc4)C[C@@](O)([C@@H](OC(=O)c4ccccc4)[C@H]21)C3(C)C [Comparative Example 1, Docetaxel]", "3.5 h"),
]

----------
Assay: In-vivo pharmacokinetic analysis (beagle), single oral administration
Settings: dog, plasma, beagles, Docetaxel PO 50 mg/kg, 2 h, mean n = 2
Readout: concentration at 2 h (ng/mL)

# Smiles Structure, Readout, Unit Abbrev, Result Value
rows = [
    ("CC(=O)O[C@@]12CO[C@@H]1C[C@H](O)[C@@]1(C)C(=O)[C@H](O)C3=C(C)[C@@H](OC(=O)[C@H](O)[C@@H](NC(=O)OC(C)(C)C)c4ccccc4)C[C@@](O)([C@@H](OC(=O)c4ccccc4)[C@H]21)C3(C)C", "concentration at 2 h", "ng/mL", 0.14),
]
